I'd appreciate it if you could supply self-cleavage kobs at 10000 uM GlcN6P values for the items below.
B1: glmS ribozyme (parent)
chain: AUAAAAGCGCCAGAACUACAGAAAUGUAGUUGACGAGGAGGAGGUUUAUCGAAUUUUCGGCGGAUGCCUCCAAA

# Variants of: B1
# measurement notes: self-cleavage kobs at 10000 uM GlcN6P; higher = faster cleavage; RNA array
# condition parameters: with glucosamine-6-phosphate
Variants at the floor of the assay were thinned out.

Look at this variant and give its reported self-cleavage kobs at 10000 uM GlcN6P. A42C U65C
< 1e-05 s⁻¹

And what about the variant G38A A52U U56G ?
< 1e-05 s⁻¹

And what about the variant A53G G60A ?
1.88e-05 s⁻¹

And what about the variant A48U C71G ?
3.69e-05 s⁻¹

And what about the variant U49A C61A ?
< 1e-05 s⁻¹

And what about the variant C11U G38U C50A ?
< 1e-05 s⁻¹

And what about the variant C16U G41A U56C ?
3.75e-05 s⁻¹

And what about the variant C34A G66U C67G ?
< 1e-05 s⁻¹

And what about the variant G32A G41U ?
0.00037 s⁻¹

And what about the variant U56A C67G ?
0.00313 s⁻¹

And what about the variant C16A G32A C34A ?
< 1e-05 s⁻¹

And what about the variant G9U C68G ?
< 1e-05 s⁻¹

And what about the variant G44C A48C ?
< 1e-05 s⁻¹

And what about the variant A6C G35C U54A ?
< 1e-05 s⁻¹

And what about the variant U54G U56C ?
0.00518 s⁻¹

And what about the variant A48C G66C ?
3.05e-05 s⁻¹

And what about the variant A6U G40U ?
1.8e-05 s⁻¹

And what about the variant U46C A52U ?
0.000199 s⁻¹

And what about the variant A15U G43A A64U C68G ?
< 1e-05 s⁻¹

And what about the variant A6C U49C ?
< 1e-05 s⁻¹

And what about the variant A33G G41A C70A ?
< 1e-05 s⁻¹

And what about the variant U45A U46G ?
0.0669 s⁻¹

The measurements presented in this section are drawn from the supplement of paper PMC7125110.
